Biological target: M3
Experiment: ELISA on coated antigen, column M3
readout type: absorbance at 490 nm
No unit in the answer, only the number.

binder	value observed
PDL1-16E12 (antibody, V domains shown, Only FR/CDR pieces are tied to the clone; also called parent antibody) VH: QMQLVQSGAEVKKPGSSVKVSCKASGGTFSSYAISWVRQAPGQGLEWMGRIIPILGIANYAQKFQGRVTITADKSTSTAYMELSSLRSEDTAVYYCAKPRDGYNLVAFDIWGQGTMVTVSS VL: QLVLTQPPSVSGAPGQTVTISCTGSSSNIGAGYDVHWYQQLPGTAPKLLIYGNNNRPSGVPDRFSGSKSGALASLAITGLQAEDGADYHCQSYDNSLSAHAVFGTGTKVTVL	0.9

Next, consider the following binder.
Qu. Name the recorded absorbance at 490 nm for PDL1-22B10 (antibody, V domains shown, Only FR/CDR pieces are tied to the clone) VH: QVQLVQSGAEVKKPGSSVKVSCRASGGTFSSYAISWVRQAPGQGLEWMGRIIPILGIANYAQKFQGRVTITADKSTSTAYMELSSLRSEDTAVYYCARDFVLSGSATVFDPWGQGTLVTVSS VL: QFVLTQPPSVSGAPGQRVTISCTGSSTNIGAGYDVHWYQQLPGKAPKVVIYGNSNRPSGVLDRFSASKSATSASLAITGLQAEDEADYYCQSYDSSLSGYVFGTGTKVTVL .
Ans. 1

Ref: patent US20190322750A1
